biological target: human sphingosine-1-phosphate receptor 1 (S1P1) (Homo sapiens (Human), UniProt P21453); assay: Inhibition of cAMP production (HTRF cAMP HiRange), S1P1 CHO-K1 cells; type: cell-based; conditions: inhibition of cAMP production, S1P1 CHO-K1 cells
Sequence (P21453 whole entry, looked up): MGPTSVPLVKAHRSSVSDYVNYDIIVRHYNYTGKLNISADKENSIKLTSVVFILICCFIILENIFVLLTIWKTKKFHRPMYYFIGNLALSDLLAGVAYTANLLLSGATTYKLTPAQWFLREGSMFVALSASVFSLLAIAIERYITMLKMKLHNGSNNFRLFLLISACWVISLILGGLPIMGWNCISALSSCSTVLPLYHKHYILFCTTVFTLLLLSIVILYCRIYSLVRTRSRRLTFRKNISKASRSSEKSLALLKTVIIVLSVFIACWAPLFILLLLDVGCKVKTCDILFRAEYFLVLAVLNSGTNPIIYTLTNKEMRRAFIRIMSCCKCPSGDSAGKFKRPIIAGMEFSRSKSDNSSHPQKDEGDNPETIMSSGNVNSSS
Here the recorded hS1P1 cAMP pEC50 is given for each entry.

# smi, hS1P1 cAMP pEC50
records = [
    ("CC(=O)Nc1ccccc1-c1coc(-c2ccc3c(c2)nnn3C(C)C)n1", "<6.5"),
    ("COc1ccccc1-c1nc(-c2ccc3c(c2)nnn3C(C)C)no1", ">6.5"),
    ("CCC1(CC)CC(=O)c2cc(-c3ncc(-c4ccncc4)cn3)ccc2O1", ">6.5"),
]

Cited source for all entries: patent US11912693B2
